Target: T1, human GIP receptor (human, UniProt P48546 22-466)
T1 sequence (looked up): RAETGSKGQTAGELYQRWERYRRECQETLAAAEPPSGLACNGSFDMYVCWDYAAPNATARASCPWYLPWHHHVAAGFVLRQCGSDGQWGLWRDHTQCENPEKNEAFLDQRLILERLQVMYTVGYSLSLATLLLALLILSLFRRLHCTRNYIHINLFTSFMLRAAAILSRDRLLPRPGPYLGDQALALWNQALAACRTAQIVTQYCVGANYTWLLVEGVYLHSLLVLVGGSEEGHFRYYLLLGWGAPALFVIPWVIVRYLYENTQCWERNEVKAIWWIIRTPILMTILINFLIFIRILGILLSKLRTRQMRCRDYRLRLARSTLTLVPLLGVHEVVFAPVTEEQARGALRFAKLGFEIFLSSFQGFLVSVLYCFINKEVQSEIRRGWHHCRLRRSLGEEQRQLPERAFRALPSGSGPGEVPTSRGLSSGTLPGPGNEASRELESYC
Test: cell-based or functional assay
Numbered stars: 1 amine (or outer) side, 2 acyl side, 3 side chain; on linkers, the order of the positions; unused ones are H or OH. Square brackets hold non-standard residues; d marks the D form. Side chains are listed from the residue outwards. * marks the point of attachment. C18 diacid = O=C(O)CCCCCCCCCCCCCCCCC(=O)*; γGlu = O=C(O)[C@H](CCC(=O)[*:2])N[*:1]; Chem. 28 = not defined here; AEEA = NCCOCCOCC(=O)O; Aib = CC(C)(N)C(=O)O
Quick reference: hGIPR Potency, no HSA, EC50 [pM] of the listed items.
Give the number; pM is assumed, so skip it.

Worked examples, 3 binders total:
binder	endpoint.label	result
Compound 95 (peptide) peptide: Y[Aib]EGTFTSDYSILLEEQAAREFIEWLLAGGPSGGGGEASHLSTAQTQRLSAELHK([AEEA-AEEA-γGlu-C18 diacid])LATLPRTETGSGSP-NH2	hGIPR Potency, no HSA, EC50 [pM]	3.13
Compound 85 (peptide) peptide: H[Aib]HGTFTSDYSILLEEQAAREFIEWLLAGGPSSGEASHLSTAQTQRLSAELHK([AEEA-AEEA-γGlu-C18 diacid])LATLPRTETGSGAP-NH2	hGIPR Potency, no HSA, EC50 [pM]	2.71
Compound 103 (reading uncertain) peptide: H[Aib]HGTFTSDYSILLEEQAAREFIEWLLAGGPSSGAGQAPGQAPGASHLSTAQTARLSAELHK(Chem. 28)LATLPRTETGSGSP-NH2	hGIPR Potency, no HSA, EC50 [pM]	3.14

Task: Entry Compound 44 (reading uncertain) peptide: H[Aib]HGTFTSDYSILLEEQAAREFIEWLLAGGPSK(Chem. 28)GALAQTLGTNEASELSTAALGRLSAELHRLATLPRTETGSGSP-NH2 : reported hGIPR Potency, no HSA, EC50 [pM] = ?
Result: 6.3

Task: Look at this binder and give its reported hGIPR Potency, no HSA, EC50 [pM]. Compound 57 (reading uncertain) peptide: Y[Aib]EGTFTSDYSILLEEQAAREFIEWLLAGGPSSGAGQAPGQAPGASHLSTAQTQRLSAELHRLATLPK(Chem. 28)TETGSGSP-NH2
Result: 1.98

Task: Which hGIPR Potency, no HSA, EC50 [pM] is reported for this binder? Compound 98 (peptide) peptide: Y[Aib]EGTFTSDYSILLEEQAAREFIEWLLAGGPSSGAGQAPGQAPLASHLSTAQTARLSAELHK([AEEA-AEEA-γGlu-C18 diacid])LATLPRTETGSGSP-NH2
Result: 2.58

Task: So what's the measured hGIPR Potency, no HSA, EC50 [pM] for this one? Compound 56 (reading uncertain) peptide: Y[Aib]EGTFTSDYSILLEEQAAREFIEWLLAGGPSSGAGQAPGQAPGASHLSTAQTQRLSAELHRLK(Chem. 28)TLPRTETGSGSP-NH2
Result: 2.65

Task: I have this binder here, Compound 72 (peptide) peptide: Y[Aib]EGTFTSDYSILLEEQAAREFIEWLLAGGPSRGAPPPSGGGEASHLSTQTQGRLSAELHK([AEEA-AEEA-γGlu-C18 diacid])LATLPRTETGSGSP-NH2 , and I need its recorded hGIPR Potency, no HSA, EC50 [pM].
Result: 2.12

src = patent US20260174875A1
